- ASSAY_NAME: chemical genetic growth profiling, strain panel (AID 1159580);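 note: tested at 20 µM; growth read once vehicle control cultures reached saturation at 30 °C; 1 = growth at the plate median or of vehicle wells; lower values mean less growth of the strain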
- MEASUREMENT_PARAMETERS: S. cerevisiae deletion strains, growth OD, locus YER123W, strain YCK3
About 2,000 (36%) of roughly 5,500 compounds were called active. Not shown: some 18% with an inconclusive outcome. Cut-off read from the data, not from the text of the source: active = normalized growth mostly below about 0.91 (no sharp cut-off); inconclusive = no clear call, values can overlap the other calls; inactive = mostly above about 0.92. Some of the results follow.
Output constraint: value belongs to 1 (yes) (active), 0 (no) (inactive)

Example cases with answers are listed next.
MOLECULE	CATEGORY
O=C(CSc1nnnn1-c1ccccc1)c1ccccc1	0 (no)
OC1(C(F)(F)F)CC(C23CC4CC(CC(C4)C2)C3)=NN1 (stereo unspecified)	1 (yes)
Cc1ccc(-c2csc(-c3cccnc3)n2)c(C)c1	0 (no)
Cc1nnsc1C(=O)NNc1ccc(F)cc1F	1 (yes)
Cc1ccc(/C=C2\CSc3ccc(F)cc3C2=O)cc1	0 (no)

Asked: GET /call?item= COc1ccc(/C=C2\CSc3ccc(F)cc3C2=O)cc1 returns the recorded outcome of this test.
Given back: 0 (no)

Asked: What was the test verdict on O=C(NNc1ccccc1F)c1ccno1 ?
Given back: 0 (no)

Asked: Hi team, can someone confirm the assay call for N#Cc1ccc(S(=O)(=O)Nc2ccccc2Oc2ccc(Cl)cc2Cl)cc1 ?
Given back: 0 (no)

Asked: Given Cc1cc(Cl)ccc1NNC(=O)c1ccno1 , state the outcome it received in this test.
Given back: 0 (no)

Asked: I'd appreciate the recorded outcome for O=c1c(Sc2ccc(Cl)cc2)c(Sc2ccc(Cl)cc2)c1=O from this test.
Given back: 1 (yes)

Asked: Status in this test for Cc1cc(Cl)ccc1NNC(=O)c1snnc1C ?
Given back: 0 (no)

These data points were gathered from PubChem BioAssay AID1159580.
